Target: T1, cynomolgus (Macaca fascicularis) ST2L extracellular domain with C-terminal His6 tag (Macaca fascicularis (cynomolgus), UniProt Q01638 19-321 (human entry))
T1 construct: also called cyno ST2L-ECD; cynoST2L-ECD
T1 chain: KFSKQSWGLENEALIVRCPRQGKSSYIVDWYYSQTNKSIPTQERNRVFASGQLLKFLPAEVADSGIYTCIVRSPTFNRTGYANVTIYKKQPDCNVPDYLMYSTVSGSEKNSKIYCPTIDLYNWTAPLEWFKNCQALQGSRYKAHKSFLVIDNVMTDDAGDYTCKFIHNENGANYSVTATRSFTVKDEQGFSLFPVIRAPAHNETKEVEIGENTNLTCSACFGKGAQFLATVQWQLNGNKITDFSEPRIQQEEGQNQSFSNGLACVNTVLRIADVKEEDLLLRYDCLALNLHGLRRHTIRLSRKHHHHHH
Assay: SPR, mAb captured, ST2L-ECD in solution
Measurement Label: kon (M⁻¹ s⁻¹)

binder="STLM124 (antibody, V domains shown, frameworks VH3-23 / Vk-L6) VH: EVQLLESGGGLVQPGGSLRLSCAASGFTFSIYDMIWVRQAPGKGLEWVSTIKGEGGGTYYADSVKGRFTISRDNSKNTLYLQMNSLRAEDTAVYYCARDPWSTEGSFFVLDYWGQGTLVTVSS VL: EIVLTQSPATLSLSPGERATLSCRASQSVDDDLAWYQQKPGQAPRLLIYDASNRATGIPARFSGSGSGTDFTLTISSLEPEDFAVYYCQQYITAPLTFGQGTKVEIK" numeric_result=8.71e+07
binder="STLM207 (antibody, V domains shown, frameworks VH3-23 / Vk-L6) VH: EVQLLESGGGLVQPGGSLRLSCAASGFTFSSYDMIWVRQAPGKGLEWVSTIRGEGGTTAYADSVKGRFTISRDNSKNTLYLQMNSLRAEDTAVYYCARDPWSTEGSFFVLDYWGQGTLVTVSS VL: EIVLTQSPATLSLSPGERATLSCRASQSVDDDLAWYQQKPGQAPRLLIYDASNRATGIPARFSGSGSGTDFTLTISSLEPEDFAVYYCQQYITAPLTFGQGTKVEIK" numeric_result=1e+08
binder="STLM232 (antibody, V domains shown, VH STLH201 + VL STLL272) VH: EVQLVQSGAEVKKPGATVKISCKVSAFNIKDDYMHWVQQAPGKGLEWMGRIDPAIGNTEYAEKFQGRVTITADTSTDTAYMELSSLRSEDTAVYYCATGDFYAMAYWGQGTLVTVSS VL: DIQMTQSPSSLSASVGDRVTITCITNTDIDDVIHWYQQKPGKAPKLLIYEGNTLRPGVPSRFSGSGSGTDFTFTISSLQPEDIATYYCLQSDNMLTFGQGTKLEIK" numeric_result=1e+08
